System: OCI-AML2
Assay: cell viability relative to vehicle control; higher = less cytotoxic;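 also: after 48 h exposure read by CellTiter-Glo luminescence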
Settings: 10 µM; SRSF2 genotype: P95H/wt
Overview of reported cell viability across a group of compounds:
Give the value in % but do not write % after it.

Prompt: Look up cell viability: CN(C)C(=S)NN=C(c1ccccn1)c1ccccn1
Response: 10.9

Continuing:
Prompt: # query: cell viability of entry Cc1cc(-c2ccc(/N=N/c3ccc4c(S(=O)(=O)O)cc(S(=O)(=O)O)c(N)c4c3O)c(C)c2)ccc1/N=N/c1ccc2c(S(=O)(=O)O)cc(S(=O)(=O)O)c(N)c2c1O [Evans Blue]
Response: 66.2

Prompt: Given Cc1cc(-n2c(=O)[nH]c(=O)n(C)c2=O)ccc1Oc1ccc(SC(F)(F)F)cc1 [Toltrazuril] , state its recorded cell viability.
Response: 105

Prompt: Given the entry Cc1ccn[nH]1 [3-Methylpyrazole] , report its measured cell viability.
Response: 95.4

Prompt: Find the recorded cell viability belonging to COc1cc2c(c(OC)c1OC)-c1c(cc3c(c1OC)OCO3)C[C@H](C)[C@](C)(O)[C@H]2OC(=O)c1ccccc1 [Schisantherin A] and report it.
Response: 106

Prompt: Fill in the blank: the reported cell viability of CC(=O)c1ccc2c(c1)c1cc(C(C)=O)ccc1n2CCNC(C)C is ____.
Response: 4.6

Prompt: # cell viability lookup, item Cn1nc(C(C)(C)C)cc1C(=O)N[C@@H](Cc1cccc(Cl)c1)C(=O)NCC#N [Cathepsin Inhibitor 1]
Response: 97.8

Prompt: Tell me the measured cell viability of Cc1ccc2oc(=O)ccc2c1 [6-Methylcoumarin] , please.
Response: 91.1

----------
Tested on: MARIMO
Test: cell viability relative to vehicle control; higher = less cytotoxic
Conditions: 10 µM; SRSF2 genotype: SRSF2 P95H/wt
Structures can show the parent of a compound that is named as a salt.
reported_metric: cell viability (%)
Write the answer as a number in %, unit excluded.

Known cell viability results, listed for orientation:
Prompt: So what's the measured cell viability for this one? Cc1cc2c(F)c(Oc3ncnn4cc(OC[C@@H](C)OC(=O)[C@H](C)N)c(C)c34)ccc2[nH]1
Response: 93.5

Prompt: Field request: cell viability | item: CCC[C@@H]1C[C@@H](C(=O)N[C@@H]([C@H]2O[C@H](SC)[C@H](O)[C@@H](O)[C@H]2O)[C@@H](C)O)N(C)C1 [Lincomycin hydrochloride (Lincocin)]
Response: 88.7

Prompt: Entry C[C@]12C=CC(=O)C=C1CC[C@@H]1[C@@H]2C(=O)C[C@@]2(C)[C@H]1CC[C@]2(O)C(=O)CO [Prednisone (Adasone)] has what cell viability?
Response: 104

Prompt: Recorded cell viability for COC(=O)N[C@H](C(=O)N1CCC[C@H]1C(=O)Nc1ccc([C@@H]2CC[C@@H](c3ccc(NC(=O)[C@@H]4CCCN4C(=O)[C@@H](NC(=O)OC)C(C)C)cc3)N2c2ccc(C(C)(C)C)cc2)cc1)C(C)C [Ombitasvir(ABT-267)] , please?
Response: 89.8

Prompt: Sample O=C(O)c1cn(-c2ccc(F)cc2)c2cc(N3CCNCC3)c(F)cc2c1=O [Sarafloxacin HCl] — what was its cell viability?
Response: 97.8

Consider the additional compound presented here.
Prompt: # input compound: Cc1cn([C@H]2C[C@H](O)[C@@H](CO)O2)c(=O)[nH]c1=O [Thymidine] ; wanted: its cell viability
Response: 96.6

----------
Quick reference: cell viability of the listed items.
Tested on: MOLM14
Test: cell viability relative to vehicle control; higher = less cytotoxic
Settings: 10 µM; SRSF2 genotype: SRSF2 P95H/wt
Give the number; % is assumed, so skip it.

Worked cases, cell viability given:
Prompt: cell viability for C[C@@H]1O[C@@H](O[C@H]2[C@H](O[C@H]3CC[C@@]4(C)[C@@H](CC[C@]5(C)[C@@H]4CC=C4[C@@H]6CC(C)(C)CC[C@]6(C(=O)O)CC[C@]45C)[C@]3(C)CO)OC[C@H](O)[C@@H]2O)[C@H](O)[C@H](O)[C@H]1O ?
Response: 39

Prompt: Looking for the measured cell viability of OC[C@@H](O)[C@@H](O)[C@@H](O)CO , can you help?
Response: 97.9

Okay, next one:
Prompt: // query cell viability value for entry CC(C)(Oc1ccc(Cl)cc1)C(=O)OCCOC(=O)c1cccnc1 [Etofibrate]
Response: 94.7

----------
Below is a list of entries, each paired with its recorded cell viability value.
Test system: MARIMO
Experiment: cell viability relative to vehicle control; higher = less cytotoxic
Details: 10 µM; SRSF2 genotype: SRSF2 P95H/wt
Structures can show the parent of a compound that is named as a salt.
The reply should be a number in %, with the unit left off.

Example results:
Prompt: Name the reported cell viability value associated with the compound CC(=O)c1ccc(O)c(C(=O)O)c1 [5-Acetylsalicylic acid]
Response: 106

Prompt: Request the reported cell viability associated with CN1CCN(c2nc(C3=C(c4c[nH]c5ccccc45)C(=O)NC3=O)c3ccccc3n2)CC1 [Sotrastaurin (AEB071)]
Response: 72.4

Prompt: Query: cell viability; subject: CCN(CC)CC(=O)Oc1ccc(NC(C)=O)cc1 [Propacetamol hydrochloride]
Response: 94.2

Prompt: Item under review: CC(=O)c1cc(O)ccc1O [2',5'-Dihydroxyacetophenone] . Reported cell viability?
Response: 94.6

Prompt: # input compound: CCOC(=O)C=Cc1ccc(OC)cc1 [Ethyl 4-Methoxycinnamate] ; wanted: its cell viability
Response: 81.3

Lab note: next compound to report on.
Prompt: Request the reported cell viability associated with CCOC(=O)c1ccc(C#Cc2ccc3c(c2)C(C)(C)CCS3)nc1 [Tazarotene (Avage)]
Response: 46.6

----------
Reported cell viability by item:
Test system: K562
Assay: cell viability relative to vehicle control; higher = less cytotoxic
Details: 10 µM; SRSF2 genotype: SRSF2 wt/wt
Where a name gives a salt, the structure may show the parent alone.
Answer format: value, then unit.

Below, 10 compounds whose answers are already recorded.
Prompt: Returns the measured cell viability for the input compound. Input: O=C1NC(=O)/C(=C/c2ccc(-c3ccc(F)cc3O)o2)S1
Response: 88.4%

Prompt: Any idea what cell viability was measured for C[C@@](Cc1ccc(O)c(O)c1)(NN)C(=O)O ?
Response: 101%

Prompt: Recorded cell viability of OC[C@H]1O[C@@H](Oc2cc3c(O)cc(O)cc3[o+]c2-c2ccc(O)c(O)c2)[C@H](O)[C@@H](O)[C@@H]1O [Cyanidin-3-O-glucoside chloride] , please.
Response: 87.1%

Prompt: Sample CCOC(=O)[C@H](CCc1ccccc1)N[C@H]1CS[C@H](c2cccs2)CN(CC(=O)O)C1=O [Temocapril HCl] — what was its cell viability?
Response: 98.8%

Prompt: Dear colleague, I am looking for the recorded cell viability of the following compound: CNS(=O)(=O)CCc1ccc2[nH]cc(C3CCN(C)CC3)c2c1 [Naratriptan HCl]
Response: 104%

Prompt: What does the record list as cell viability for CCCCCCOC(=O)NC(=N)c1ccc(NCc2nc3cc(C(=O)N(CCC(=O)OCC)c4ccccn4)ccc3n2C)cc1 ?
Response: 67.2%

Prompt: Bench note: what cell viability did Cn1c([N+](=O)[O-])cnc1COC(N)=O show?
Response: 92.3%

Prompt: Entry under review: CCCCOc1ccc(C(=O)Nc2ccc(F)cc2F)cc1 . Reported cell viability?
Response: 91.8%

Prompt: Find the recorded cell viability belonging to CC[C@@]1(O)C(=O)OCc2c1cc1n(c2=O)Cc2cc3c(CN(C)C)c(O)ccc3nc2-1 [Topotecan] and report it.
Response: 17.5%

Prompt: # cell viability lookup, item Cc1cc(SCc2sc(-c3ccc(C(F)(F)F)cc3)nc2C)ccc1OCC(=O)O
Response: 96.7%

More entries:
Prompt: I am curious: what cell viability value has been reported for CCN(CC)CC#CCOC(=O)C(O)(c1ccccc1)C1CCCCC1 (configuration not stated) [Oxybutynin chloride] ?
Response: 88.6%

Prompt: May I ask what cell viability has been recorded for Nc1ccccc1NC(=O)c1ccc(CNc2nccc(-c3cccnc3)n2)cc1 ?
Response: 10.5%

Prompt: cell viability lookup needed for CCCCCCCCC(=O)O , thanks.
Response: 102%

Prompt: Returns the measured cell viability for the input compound. Input: Cc1cc(O)c(-c2ccc([C@@H](C)CN(C)C)cc2)c2c1[nH]c(=O)c1sccc12
Response: 14.7%

Prompt: Can you share its cell viability? I mean this compound: O=C1CCc2ccc(O)cc2N1 [7-Hydroxy-3,4-dihydrocarbostyril]
Response: 102%

Prompt: Returns the measured cell viability for the input compound. Input: CC1(C)S[C@@H]2[C@H](NC(=O)[C@H](N)c3ccccc3)C(=O)N2[C@H]1C(=O)O [Ampicillin sodium]
Response: 102%

Prompt: Give the measured cell viability of C[C@H](CSC(=O)c1ccccc1)C(=O)N1C[C@@H](Sc2ccccc2)C[C@H]1C(=O)O .
Response: 106%

----------
In this section, each of the compounds is paired with its reported cell viability.
Test system: OCI-AML2
Assay: cell viability relative to vehicle control; higher = less cytotoxic
Conditions: 10 µM; SRSF2 genotype: P95H/wt
Structures can show the parent of a compound that is named as a salt.
Write the value in % as a bare number.

Prompt: GET /values?readout=cell viability&item= CO/N=C(\C(=O)N[C@@H]1C(=O)N2C(C(=O)[O-])=C(C[n+]3ccn4ncccc43)CS[C@H]12)c1nsc(N)n1 [Cefozopran hydrochloride]
Response: 95.2

Prompt: Would you kindly share the measured cell viability for COc1ccc2c(c1)c(CC(=O)O)c(C)n2C(=O)c1ccc(Cl)cc1 [Indometacin Sodium] ?
Response: 98.3

New cases:
Prompt: Endpoint output: cell viability of COc1ccc(-c2oc3cc(O)cc(O)c3c(=O)c2O)cc1 [kaempferide] . Value?
Response: 80.7

Prompt: Return reported cell viability; argument: O=C(NCc1cccc(O)c1)Nc1nc(-c2ccncc2)cs1
Response: 18.8

Prompt: # input compound: CC1=C[C@]2(O)O[C@@]3(CC2=C(C)C)[C@@H](C)CC[C@@H]13 ; wanted: its cell viability
Response: 88.6

Prompt: cell viability lookup needed for CC(=O)OCc1ccccc1 [Benzyl acetate] , thanks.
Response: 98.3

Prompt: # get_value(readout='cell viability', item= COc1cc2nccc(Oc3ccc(NC(=O)C4(C(=O)Nc5ccc(F)cc5)CC4)cc3)c2cc1OC [Cabozantinib malate] )
Response: 23.3

Prompt: Looking for the measured cell viability of CCCC[S+]([O-])c1sc2nc(-c3cccs3)cc(-c3ccccc3)c2c1N (stereo not drawn) , can you help?
Response: 98.7

Every entry's value here was drawn from the supplement of paper PMC10981050.
